Source listed as patent US20100130519A1.

Tested on: HUVEC
Assay: HUVEC assay, endothelial cell proliferation
Type: cell-based
Conditions: Homo sapiens, basal (no VEGF stimulation), read-out: IC50, basal endothelial cell proliferation
quantity-name: IC50

Hello, please tell me recorded IC50 for this one: COc1cc2c(Oc3ccc4[nH]c(C)cc4c3F)ncnc2cc1OCCCN1CCCC1 [AZD2171]
> 500 nM
